Listed next: entries and their corresponding CC50.
Protocol description: in vitro
Experimental parameters: CC50, beside the EC50 of c2

Consider the following illustrative entries.
{"Smiles text": "Fc1ccc(/C=C/c2nnc(Cc3ccc(Cl)nc3)o2)c(Cl)c1", "CC50": "> 50 µM"}
{"Smiles text": "COc1ccccc1/C=C/c1nnc(Nc2ccc(Br)cc2)o1", "CC50": "> 50 µM"}
{"Smiles text": "Cc1ccccc1CCc1nnc(Nc2ccc(F)c(Cl)c2)o1", "CC50": "> 50 µM"}
{"Smiles text": "CC(C)c1cccc(Cc2nnc(/C=C/c3ccc(F)cc3Cl)o2)c1", "CC50": "> 50 µM"}
{"Smiles text": "Clc1cccc(Cc2nnc(SCc3ccccc3-c3ccccc3)o2)c1", "CC50": "> 50 µM"}

Asked: Sample Brc1ccc(Cc2nnc(/C=C/c3ccccc3Br)o2)cc1 — what was its CC50?
Given back: > 50 µM

Asked: Sample CC(C)c1ccccc1OCc1nnc(Cc2ccc(Br)cc2)o1 — what was its CC50?
Given back: > 50 µM
